Target: hGIPR (Homo sapiens, UniProt P48546)
Sequence (P48546 22-466): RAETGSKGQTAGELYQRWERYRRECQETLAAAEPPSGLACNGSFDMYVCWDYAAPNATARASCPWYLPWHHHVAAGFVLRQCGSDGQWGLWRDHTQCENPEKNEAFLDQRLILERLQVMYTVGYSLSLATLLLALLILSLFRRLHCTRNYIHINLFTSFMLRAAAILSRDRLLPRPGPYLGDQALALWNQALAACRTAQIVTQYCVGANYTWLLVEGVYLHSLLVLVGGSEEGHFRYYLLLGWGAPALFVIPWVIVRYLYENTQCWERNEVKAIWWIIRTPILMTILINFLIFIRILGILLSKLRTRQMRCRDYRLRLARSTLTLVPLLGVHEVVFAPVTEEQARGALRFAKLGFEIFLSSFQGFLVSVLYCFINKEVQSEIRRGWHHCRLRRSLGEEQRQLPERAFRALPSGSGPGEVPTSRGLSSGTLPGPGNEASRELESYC
Test: Functional cAMP activity in the presence of 1% HSA
Assay type: cell-based
Details: read-out: cAMP Rel EC50, hGIPR
Starred links: 1 amine or outer side, 2 acyl side, 3 side chain; linkers in the order of their positions; H or OH if unused. Non-standard residues stand in square brackets, D forms with d. Groups on a side chain read outwards from the residue. *: point of attachment. C18 diacid = O=C(O)CCCCCCCCCCCCCCCCC(=O)*; αMePhe(2-F) = C[C@](N)(Cc1ccccc1F)C(=O)O; γGlu = O=C(O)[C@H](CCC(=O)[*:2])N[*:1]; αMeY = C[C@](N)(Cc1ccc(O)cc1)C(=O)O; 4Pal = N[C@@H](Cc1ccncc1)C(=O)O; Aad = N[C@@H](CCCC(=O)O)C(=O)O; αMeL = CC(C)C[C@](C)(N)C(=O)O; αMeS = C[C@](N)(CO)C(=O)O; Orn = NCCC[C@H](N)C(=O)O; AEEA = NCCOCCOCC(=O)O; Aib = CC(C)(N)C(=O)O
REPORTED_METRIC: EC50 (µM)
Give just the number in µM; leave the unit off.

Use these answered entries as a reference point.
SUBSTANCE	EC50, µM
H-Y[Aib]QGTFTSDFS[Orn][αMeL]LDKK([γGlu-γGlu-C18 diacid])AQ[Aib]AFIEYLLE[Aib]GPSSGAPPPSGS-NH2 [Example 201]	0.0143
H-Y[Aib]QGT[αMePhe(2-F)]TSD[4Pal][αMeS]I[αMeL]LD[Orn]K([γGlu-γGlu-C18 diacid])AQ[Aib][Orn]FI[dE][αMeY]LSEGGPSSGEPPPSGTEEE-NH2 [Example 562]	0.0102
H-Y[Aib]QGTFTSDFS[Orn][αMeL]LDKK([AEEA-AEEA-γGlu-C18 diacid])AQ[Aib]AFIEYLLE[Aib]GHSSGAPPPSGT-NH2 [Example 182]	0.00995
H-Y[Aib]QGT[αMePhe(2-F)]TSD[4Pal]SILLDKK([AEEA-γGlu-C18 diacid])AQ[Aib]AFIEYL[Aad]EGGPSSGAPPPSGTGE-NH2 [Example 663]	0.0102
H-Y[Aib]QGTFTSDFS[Orn][αMeL]LDKK([AEEA-γGlu-γGlu-C18 diacid])AQ[Aib]AFIEYLLE[Aib]GPSSGAPPPSG[4Pal]-NH2 [Example 279]	0.0116

Kindly review the next substance as well.
Problem: Name the recorded EC50 for H-Y[Aib]QGT[αMePhe(2-F)]TSD[4Pal][αMeS]I[αMeL]LD[Orn]K([γGlu-γGlu-C18 diacid])AQ[Aib][Orn]FI[dE][αMeY]LSEGGPSSGEPPPSGQEE-NH2 [Example 570] .
Result: 0.0136

----------
Molecular target: human GcgR (Homo sapiens, UniProt P47871)
Sequence (P47871 26-477): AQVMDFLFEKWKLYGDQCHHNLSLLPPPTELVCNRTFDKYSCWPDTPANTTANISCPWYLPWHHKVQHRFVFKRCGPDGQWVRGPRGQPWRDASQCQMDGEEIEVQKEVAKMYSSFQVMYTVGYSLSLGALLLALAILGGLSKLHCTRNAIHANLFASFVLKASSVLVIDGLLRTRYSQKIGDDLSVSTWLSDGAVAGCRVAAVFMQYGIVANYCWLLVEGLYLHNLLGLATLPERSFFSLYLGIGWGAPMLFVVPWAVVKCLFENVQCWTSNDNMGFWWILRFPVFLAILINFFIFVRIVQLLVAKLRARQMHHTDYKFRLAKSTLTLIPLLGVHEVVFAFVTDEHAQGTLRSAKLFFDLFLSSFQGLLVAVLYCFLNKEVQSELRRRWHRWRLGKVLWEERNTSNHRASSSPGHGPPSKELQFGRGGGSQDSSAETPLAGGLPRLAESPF
Experiment: Functional cAMP activity in the presence of 1% HSA
Assay type: cell-based
Conditions: read-out: cAMP Rel EC50, hGcgR
Starred links: 1 amine or outer side, 2 acyl side, 3 side chain; linkers in the order of their positions; H or OH if unused. Non-standard residues stand in square brackets, D forms with d. Groups on a side chain read outwards from the residue. No end group written: not given here. *: point of attachment. C20 diacid = O=C(O)CCCCCCCCCCCCCCCCCCC(=O)*; C18 diacid = O=C(O)CCCCCCCCCCCCCCCCC(=O)*; αMePhe(2-F) = C[C@](N)(Cc1ccccc1F)C(=O)O; γGlu = O=C(O)[C@H](CCC(=O)[*:2])N[*:1]; αMe4Pal = C[C@](N)(Cc1ccncc1)C(=O)O; 4Pal = N[C@@H](Cc1ccncc1)C(=O)O; αMeL = CC(C)C[C@](C)(N)C(=O)O; Orn = NCCC[C@H](N)C(=O)O; Dap = NC[C@H](N)C(=O)O; AEEA = NCCOCCOCC(=O)O; Aib = CC(C)(N)C(=O)O
REPORTED_METRIC: pEC50
Value format note: pEC50 is -log10 of concentration (mol/L); just state the number.

> print(dat)
                                  substance  recorded.result
1  H-Y[Aib]QGTFTSDYSI[αMeL]LDKQAAK([AEEA-AEEA-γGlu-C20 diacid])QFVEWLIA[Aib]GPSSGEPPPGEG-NH2 [Example 333]             5.85
2  H-Y[Aib]QGTFTSDFS[Orn][αMeL]LDKK([AEEA-γGlu-C18 diacid])AQ[Aib]AFIEYLLAGGPSSGAPPPSGSQ-OH [Example 88]             6.04
3  Y[Aib]QGT[αMePhe(2-F)]TSD[4Pal]SILLDKK([γGlu-γGlu-C18 diacid])AQ[Aib]AFIEYLQEGGPSSGAPPPSGTEE-NH2 [Example 580]             6.04
4  H-Y[Aib]QGT[αMePhe(2-F)]TSD[4Pal]SILLDKK([γGlu-γGlu-C18 diacid])AQ[Aib]AFIEYLEEGGPSSGAPPPSGEGE-NH2 [Example 621]             6.05
5  H-Y[Aib]QGTFTSDYS[Dap][αMeL]LDKK([AEEA-γGlu-C18 diacid])AQ[Aib]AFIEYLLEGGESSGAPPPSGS-NH2 [Example 360]             5.83
6  H-Y[Aib]QGTFTSD[4Pal]SQ[αMeL]LDKK([γGlu-γGlu-C18 diacid])AQ[αMe4Pal]AFIEYLIE[Aib]GPSSGAPPPSGSEE-NH2 [Example 899]             6.09
7  Y[Aib]QGTFTSDFSK[αMeL]LDKK([AEEA-γGlu-C18 diacid])AQ[Aib]QFIEYLLAGGPSSGEPPPSEG-NH2 [Example 26]             6.01
8  H-Y[Aib]QGTFTSDFS[Orn][αMeL]LDKK([AEEA-AEEA-γGlu-C18 diacid])AQ[Aib]AFIEYLLE[Aib]G[4Pal]SSGAPPPSGE-NH2 [Example 189]             6.07

We next turn to a different substance, shown below.
Problem: Requested field: pEC50. Item: H-Y[Aib]QGT[αMePhe(2-F)]TSD[4Pal]SILLDKK([γGlu-γGlu-C18 diacid])AQ[Aib]AFIE[4Pal]LEEGGPSSGAPPPSGTE-NH2 [Example 550]
Result: 6.00
